testTarget: UniProt:P49137
Sequence (P49137 whole entry): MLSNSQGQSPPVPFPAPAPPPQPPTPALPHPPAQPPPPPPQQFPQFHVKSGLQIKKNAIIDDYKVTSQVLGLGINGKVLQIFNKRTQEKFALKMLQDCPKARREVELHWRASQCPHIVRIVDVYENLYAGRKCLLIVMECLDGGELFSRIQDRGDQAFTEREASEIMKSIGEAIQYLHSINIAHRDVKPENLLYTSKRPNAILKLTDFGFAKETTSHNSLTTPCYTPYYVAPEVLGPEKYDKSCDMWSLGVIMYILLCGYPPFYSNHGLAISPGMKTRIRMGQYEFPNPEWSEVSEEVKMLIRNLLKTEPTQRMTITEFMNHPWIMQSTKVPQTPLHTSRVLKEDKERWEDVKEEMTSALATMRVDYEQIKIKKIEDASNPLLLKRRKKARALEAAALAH
procedureText: MK2 degradation in human THP-1 monocytic cells (MSD, 24 h)
Type: cell-based
Set-up: endogenous in cells
studyConditions: THP-1 cells, read-out: MK2 MSD THP-1 degradation 24 h GMean External Abs DC50
measure: DC50

compound: C[C@@H]1CNc2c(sc3ccc4nc(-c5ccc(N6CCN(CCc7ccc8c(c7)n(C)c(=O)n8C7CCC(=O)NC7=O)CC6)nc5)ccc4c23)C(=O)N1 (some centres unmarked)
measure: DC50
observedMeasurement: < 1 nM
//
compound: O=C1CCC(N2Cc3cc(N4CCN(CC5CCN(c6ccc(-c7cc(-c8cc9c([nH]8)CCNC9=O)ccn7)c(F)c6)CC5)CC4)ccc3C2=O)C(=O)N1 (centres unmarked)
measure: DC50
observedMeasurement: 10 to 100 nM
//
compound: C[C@@H]1CNc2c(sc3ccc4nc(-c5cccc(N6CCN(CC7CCN(c8ccc9c(c8)CN(C8CCC(=O)NC8=O)C9=O)CC7)CC6)c5)ccc4c23)C(=O)N1 (some centres unmarked)
measure: DC50
observedMeasurement: < 1 nM
//
compound: Cn1c(=O)n(C2CCC(=O)NC2=O)c2ccc(N3CCC(CN4CCN(c5ccc(-c6cc(-c7cc8c([nH]7)CCNC8=O)ccn6)cc5)CC4)CC3)cc21 (centres unmarked)
measure: DC50
observedMeasurement: < 1 nM
//
compound: C[C@@H]1CNc2c(sc3ccc4nc(-c5cnc(N6CCN(CC7CCN(c8ccc9c(c8)n(C)c(=O)n9C8CCC(=O)NC8=O)CC7)CC6)nc5)ccc4c23)C(=O)N1 (some centres unmarked)
measure: DC50
observedMeasurement: < 1 nM
